# System: A549
# experiment_summary: Antiproliferative activity against human A549 cells assessed as survival at 10 uM by sulforhodamine B assay
# Type: functional
# experimental_setup: read-out: Activity
endpoint: viability at 10 µM (%)
API: value field is a number in %; no unit string.

Past entries and their recorded results:
# molecule, endpoint, reported_value
measured = [
    ("Cc1cc2c(Nc3ccc4nc(N)sc4c3)c(C#N)cnc2cc1OCCCN1CCN(C)CC1", "viability at 10 µM", 64.1),
    ("COc1cc(Nc2c(C#N)cnc3cc(OCCCN4CCN(C)CC4)c(OC)cc23)c(Cl)cc1Cl", "viability at 10 µM", 9.32),
    ("Cc1cc2c(Nc3ccc4nc(N)sc4c3)c(C#N)cnc2cc1OCCN1CCCCC1", "viability at 10 µM", 55.4),
]

Name the reported viability at 10 µM value associated with the molecule Cc1cc2c(Nc3ccc4nc(N)sc4c3)c(C#N)cnc2cc1OCCCN1CC(C)CC(C)C1 (centres undefined)
53.6

###

Each item that follows carries a reported pIC50.
# assay_system: Nitric oxide synthase, inducible (Mus musculus)
# Sequence (P29477 whole entry): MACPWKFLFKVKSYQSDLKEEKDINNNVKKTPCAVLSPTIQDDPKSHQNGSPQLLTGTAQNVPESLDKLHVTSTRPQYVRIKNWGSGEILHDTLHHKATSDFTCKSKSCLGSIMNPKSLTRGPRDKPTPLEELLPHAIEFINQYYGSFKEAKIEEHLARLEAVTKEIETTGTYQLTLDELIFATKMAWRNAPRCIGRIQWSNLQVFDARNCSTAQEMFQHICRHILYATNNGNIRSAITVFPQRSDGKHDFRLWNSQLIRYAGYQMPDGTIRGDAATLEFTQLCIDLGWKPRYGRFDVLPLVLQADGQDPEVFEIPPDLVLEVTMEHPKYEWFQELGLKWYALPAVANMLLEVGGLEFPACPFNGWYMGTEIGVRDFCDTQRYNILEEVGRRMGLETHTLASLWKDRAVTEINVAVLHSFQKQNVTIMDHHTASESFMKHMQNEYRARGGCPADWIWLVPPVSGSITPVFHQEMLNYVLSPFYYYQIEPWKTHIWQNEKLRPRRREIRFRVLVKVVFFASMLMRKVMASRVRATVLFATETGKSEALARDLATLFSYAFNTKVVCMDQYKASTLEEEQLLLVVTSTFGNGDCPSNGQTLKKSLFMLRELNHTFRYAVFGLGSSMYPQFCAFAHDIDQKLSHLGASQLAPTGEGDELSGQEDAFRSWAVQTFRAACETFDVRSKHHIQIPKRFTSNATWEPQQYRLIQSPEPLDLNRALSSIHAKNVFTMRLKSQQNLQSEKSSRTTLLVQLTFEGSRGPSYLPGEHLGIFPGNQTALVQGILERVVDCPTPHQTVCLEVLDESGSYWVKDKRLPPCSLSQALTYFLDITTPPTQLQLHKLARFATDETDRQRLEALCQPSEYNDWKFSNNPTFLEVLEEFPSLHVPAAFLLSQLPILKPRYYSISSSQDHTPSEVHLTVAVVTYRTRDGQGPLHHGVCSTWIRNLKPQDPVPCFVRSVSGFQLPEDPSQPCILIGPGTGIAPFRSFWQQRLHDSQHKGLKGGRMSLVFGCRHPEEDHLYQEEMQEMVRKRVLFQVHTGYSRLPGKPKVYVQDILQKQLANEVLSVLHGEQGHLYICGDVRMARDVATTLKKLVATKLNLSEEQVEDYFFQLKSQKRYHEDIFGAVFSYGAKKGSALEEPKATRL
# experiment_summary: Inhibition of iNOS in mouse ANA1 cells
pIC50 is defined as minus the log10 of a concentration measured in mol/L.

Please review the following examples before continuing.
# molecule, reported_value
measured = [
    ("COc1cc2c(Nc3ccc4nc(N)sc4c3)c(C#N)cnc2cc1OCCCN1CCNCC1", 3.98),
    ("Cc1cc2c(Nc3ccc4nc(N)sc4c3)c(C#N)cnc2cc1OCCCN1CC(C)CC(C)C1 (stereo unspecified)", 4.98),
    ("CCN(CC)CCCOc1cc2ncc(C#N)c(Nc3ccc4nc(N)sc4c3)c2cc1C", 4.33),
]

What measured pIC50 goes with "Cc1cc2c(Nc3ccc4nc(N)sc4c3)c(C#N)cnc2cc1OCCCN1CCNCC1" ?
4.76

Find the recorded pIC50 belonging to "Cc1cc2c(Nc3ccc4nc(N)[nH]c4c3)c(C#N)cnc2cc1OCCCN(C)C" and report it.
4.88

What value of pIC50 has been recorded for this entry: "Cc1cc2c(Nc3ccc4nc(N)sc4c3)c(C#N)cnc2cc1OCCCN1CCOCC1"
4.50

Item "Cc1cc2c(Nc3ccc4nc(N)sc4c3)c(C#N)cnc2cc1OCCCN1CCN(C)CC1" has what recorded pIC50?
4.43

Query (molecule): "Cc1cc2c(Nc3ccc4nc(N)sc4c3)c(C#N)cnc2cc1OCCN1CCCCC1" ; field requested: pIC50
4.57

Return reported pIC50; argument: Cc1cc2c(Nc3ccc4nc(N)sc4c3)c(C#N)cnc2cc1OCCCN1CC(C)NC(C)C1 (stereo unspecified)
4.05

Which pIC50 is listed for "Cc1cc2c(Nc3ccc4nc(N)sc4c3)c(C#N)cnc2cc1OCCCN1CCC(C)CC1" ?
4.90

So what's the measured pIC50 for this one? "Cc1cc2c(Nc3ccc4nc(N)[nH]c4c3)c(C#N)cnc2cc1OCCCN1CCCC1"
4.61

###

Assay read-out IC50; system under study: Proto-oncogene tyrosine-protein kinase Src (Homo sapiens).
Sequence (P12931 2-536 limits assumed): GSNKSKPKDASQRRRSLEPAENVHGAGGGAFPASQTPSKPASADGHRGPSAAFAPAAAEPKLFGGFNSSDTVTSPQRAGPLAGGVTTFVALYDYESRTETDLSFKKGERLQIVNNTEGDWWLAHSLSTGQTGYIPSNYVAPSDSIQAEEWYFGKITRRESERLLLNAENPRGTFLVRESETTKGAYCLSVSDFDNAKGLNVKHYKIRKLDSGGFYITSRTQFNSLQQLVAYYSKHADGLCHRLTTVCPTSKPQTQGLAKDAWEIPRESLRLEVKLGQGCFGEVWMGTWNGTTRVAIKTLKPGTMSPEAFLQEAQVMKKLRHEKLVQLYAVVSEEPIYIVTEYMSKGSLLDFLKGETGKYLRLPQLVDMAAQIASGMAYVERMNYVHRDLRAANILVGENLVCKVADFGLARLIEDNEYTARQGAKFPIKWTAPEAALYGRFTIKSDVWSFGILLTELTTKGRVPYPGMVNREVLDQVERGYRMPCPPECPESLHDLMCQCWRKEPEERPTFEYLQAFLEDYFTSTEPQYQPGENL
Numeric only. Scale: nM

# compound, assay_system, unit_of_measure, reported_value
data = [
    ("Cc1cc2c(Nc3ccc4nc(N)sc4c3)c(C#N)cnc2cc1OCCCN1CC(C)NC(C)C1 (centres undefined)", "Proto-oncogene tyrosine-protein kinase Src (Homo sapiens)", "nM", 36.6),
]

Need IC50, item Cc1cc2c(Nc3ccc4nc(N)sc4c3)c(C#N)cnc2cc1OCCCN1CC(C)CC(C)C1 (centres undefined)
267

Consider the compound "Cc1cc2c(Nc3ccc4nc(N)sc4c3)c(C#N)cnc2cc1OCCCN1CCC(C)CC1" and give its measured IC50.
53.4

Entry "Cc1cc2c(Nc3ccc4nc(N)sc4c3)c(C#N)cnc2cc1OCCCN1CCNCC1" : reported IC50 = ?
129

###

# Tested on: PC-3
# experiment_summary: Antiproliferative activity against human PC3 cells assessed as survival at 10 uM by sulforhodamine B assay
# Type: functional
# experimental_setup: read-out: Activity
Entries and their viability at 10 µM
Give just the number in %; leave the unit off.

Illustrative cases are given below, each with its answer.
# compound, assay_system, unit_of_measure, viability at 10 µM
data = [
    ("Cc1cc2c(Nc3ccc4nc(N)sc4c3)c(C#N)cnc2cc1OCCCN1CCN(C)CC1", "PC-3", "%", 59.5),
    ("COc1cc(Nc2c(C#N)cnc3cc(OCCCN4CCN(C)CC4)c(OC)cc23)c(Cl)cc1Cl", "PC-3", "%", 7.81),
    ("Cc1cc2c(Nc3ccc4nc(N)sc4c3)c(C#N)cnc2cc1OCCN1CCCCC1", "PC-3", "%", 77.7),
]

Given Cc1cc2c(Nc3ccc4nc(N)sc4c3)c(C#N)cnc2cc1OCCCN1CC(C)CC(C)C1 (centres undefined) , state its recorded viability at 10 µM.
63
